Values were extracted from ChEMBL document CHEMBL1139240.

Test system: K562
TEST_DETAILS: Cytotoxicity against human K562 cells after 72 hrs by MTT assay
Format: functional, cell-based
CONDITION_INFO: K562, 72 h
Could you please report measured IC50 for the items listed next?
Response body: numeric value in µM, unit text excluded.

Req: Tell me the measured IC50 of `CSc1nc2c(Nc3cccc(C(F)(F)F)c3)c3ccccc3nc2s1` , please.
Resp: 67.1

Req: Ok, now `CCN(CC)CCNc1nc2c(Nc3cccc(Cl)c3)c3ccccc3nc2s1`
Resp: 12.2

Req: How about `CCN(CC)CCNc1nc2c(Nc3ccc(Cl)cc3)c3ccccc3nc2s1` ?
Resp: 7.26

Req: What do you have for `CCN(CC)CCNc1nc2c(Nc3cccc(OC)c3)c3ccccc3nc2s1` ?
Resp: 23.5

Req: Check `CNc1cccc(Nc2c3ccccc3nc3sc(SC)nc23)c1` too.
Resp: 46.9

Req: # iterate: `CCN(CC)CCCNc1nc2c(Nc3cccc(C#N)c3)c3ccccc3nc2s1`
Resp: 12.9

Req: Now the molecule `CCN(CC)CCNc1nc2c(Nc3cccc(C#N)c3)c3ccccc3nc2s1`
Resp: 12.5

Req: Again, but for `CSc1nc2c(Nc3cccc(C#N)c3)c3cc(F)ccc3nc2s1`
Resp: 55.4

Req: `CCN(CC)CCNc1nc2c(Nc3ccc(C#N)cc3)c3ccccc3nc2s1` ?
Resp: 8.36

Req: Also `CCN(CC)CCNc1nc2c(Nc3ccc(OC)cc3)c3ccccc3nc2s1` ?
Resp: 10.9

Req: Another molecule to look at: `CCN(CC)CCCNc1nc2c(Nc3ccccc3)c3ccccc3nc2s1`
Resp: 7.52
